// inhibition lookup, one value per entry
Target: UniProtKB O00482
Experiment: suppression of LRH-1-driven Cyp19-luciferase signal, LRH-1 inverse agonist project, cell-based, luminescence, 3X%INH (AID 485348)
Details: HEK293T LRH-1 Cyp19-luciferase reporter, 20 h, at 5 µM, active compounds read high
endpoint_label: inhibition (%)

smiles_str: O=c1cc(N2CCN(c3nc(-c4ccccc4)ns3)CC2)[nH]c(=O)n1C1CCCCC1
numeric_value: 42
//
smiles_str: O=c1cc(N2CCOCC2)[nH]c(=O)n1C1CCCCC1
numeric_value: 5.3
//
smiles_str: Cc1cc(C)cc(N2CCN(c3cc(=O)n(C4CCCCC4)c(=O)[nH]3)CC2)c1
numeric_value: 38.3
//
smiles_str: Cc1ccc(C)n1CCN1CCN(c2cc(=O)n(C3CCCCC3)c(=O)[nH]2)CC1
numeric_value: 32.3
//
smiles_str: O=c1cc(N2CCN(c3nccc4occc34)CC2)[nH]c(=O)n1C1CCCCC1
numeric_value: 2.7
//
smiles_str: O=c1cc(N2CCN(c3cc(Cl)cc(Cl)c3)CC2)[nH]c(=O)n1C1CCCCC1
numeric_value: 20
//
smiles_str: CC(C)Cn1c(=O)cc(N2CCN(c3cccc(C(F)(F)F)c3)CC2)[nH]c1=O
numeric_value: 33.3
//
smiles_str: O=c1cc(N2CCN(c3ccc(F)cc3F)CC2)[nH]c(=O)n1C1CCCCC1
numeric_value: 3.3
//
smiles_str: CC1CCN(c2cc(=O)n(C3CCCCC3)c(=O)[nH]2)CC1
numeric_value: 10
//
smiles_str: CCn1c(=O)cc(N2CCN(C(=O)c3ccco3)CC2)[nH]c1=O
numeric_value: 3.3
//
smiles_str: O=c1cc(N2CCN(c3ccc(C(F)(F)F)cc3)CC2)[nH]c(=O)n1C1CCCCC1
numeric_value: 0
//
smiles_str: O=c1cc(N2CCCCC2)[nH]c(=O)n1C1CCCCC1
numeric_value: 20.3
//
smiles_str: CCN1CCN(c2cc(=O)n(C3CCCCC3)c(=O)[nH]2)CC1
numeric_value: 5.3
//
smiles_str: O=c1cc(N2CCN(c3cccc(Cl)n3)CC2)[nH]c(=O)n1C1CCCCC1
numeric_value: 45
//
smiles_str: CCn1c(=O)cc(N2CCN(c3ccc(F)cc3)CC2)[nH]c1=O
numeric_value: 2.3
//
smiles_str: O=C(c1ccco1)N1CCN(c2cc(=O)n(C3CCCCC3)c(=O)[nH]2)CC1
numeric_value: 11
//
smiles_str: O=C(c1ccccc1)N1CCN(c2cc(=O)n(C3CCCCC3)c(=O)[nH]2)CC1
numeric_value: 0.3
//
smiles_str: O=c1cc(N2CCN(c3cccc(Br)c3)CC2)[nH]c(=O)n1C1CCCCC1
numeric_value: 17
//
smiles_str: CCn1c(=O)cc(N2CCN(c3ccccc3)CC2)[nH]c1=O
numeric_value: 3.7
//
smiles_str: O=c1cc(N2CCN(c3ccccc3)CC2)[nH]c(=O)n1Cc1ccc(F)cc1
numeric_value: 22.7
//
smiles_str: O=c1cc(N2CCN(c3cccc(Cl)c3Cl)CC2)[nH]c(=O)n1C1CCCCC1
numeric_value: 42

* * *

Biological target: Nuclear receptor subfamily 5 group A member 2 (Homo sapiens) (UniProt O00482)
Sequence (O00482 whole entry, looked up): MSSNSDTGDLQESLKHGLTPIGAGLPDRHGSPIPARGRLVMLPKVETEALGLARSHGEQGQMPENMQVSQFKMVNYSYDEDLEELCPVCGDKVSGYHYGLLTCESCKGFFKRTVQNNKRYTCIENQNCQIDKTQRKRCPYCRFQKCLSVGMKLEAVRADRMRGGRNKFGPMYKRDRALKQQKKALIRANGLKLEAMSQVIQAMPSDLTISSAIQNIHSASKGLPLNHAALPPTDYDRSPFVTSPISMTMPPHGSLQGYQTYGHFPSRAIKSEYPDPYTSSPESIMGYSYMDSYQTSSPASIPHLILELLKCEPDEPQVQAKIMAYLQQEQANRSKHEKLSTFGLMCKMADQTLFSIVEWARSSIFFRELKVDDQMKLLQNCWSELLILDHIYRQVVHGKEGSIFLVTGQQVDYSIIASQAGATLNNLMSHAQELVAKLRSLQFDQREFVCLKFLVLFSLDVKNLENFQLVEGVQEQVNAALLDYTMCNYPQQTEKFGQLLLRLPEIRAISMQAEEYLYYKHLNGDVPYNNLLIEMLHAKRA
Test: suppression of LRH-1-driven Cyp19-luciferase signal, LRH-1 inverse agonist project, cell-based, luminescence, 3X%INH (AID 485348)
Details: HEK293T LRH-1 Cyp19-luciferase reporter, 20 h, at 5 µM, active compounds read high
inhibition of 10% or higher: T. Under 10%: F.

smiles_str: CCn1c(=O)cc(N2CCN(c3cccc(C(F)(F)F)c3)CC2)[nH]c1=O
target_or_system: Nuclear receptor subfamily 5 group A member 2 (Homo sapiens) (UniProt O00482)
assigned_class: T
//
smiles_str: O=c1cc(N2CCN(C(c3ccccc3)c3ccccc3)CC2)[nH]c(=O)n1C1CCCCC1
target_or_system: Nuclear receptor subfamily 5 group A member 2 (Homo sapiens) (UniProt O00482)
assigned_class: F
//
smiles_str: O=c1cc(N2CCN(c3ccccn3)CC2)[nH]c(=O)n1C1CCCCC1
target_or_system: Nuclear receptor subfamily 5 group A member 2 (Homo sapiens) (UniProt O00482)
assigned_class: T
//
smiles_str: C=CCn1c(=O)cc(N2CCN(c3cccc(C(F)(F)F)c3)CC2)[nH]c1=O
target_or_system: Nuclear receptor subfamily 5 group A member 2 (Homo sapiens) (UniProt O00482)
assigned_class: T
//
smiles_str: O=c1cc(N2CCN(c3ccccc3Cl)CC2)[nH]c(=O)n1C1CCCCC1
target_or_system: Nuclear receptor subfamily 5 group A member 2 (Homo sapiens) (UniProt O00482)
assigned_class: T
//
smiles_str: O=c1cc(N2CCN(c3ncccc3C(F)(F)F)CC2)[nH]c(=O)n1C1CCCCC1
target_or_system: Nuclear receptor subfamily 5 group A member 2 (Homo sapiens) (UniProt O00482)
assigned_class: T
//
smiles_str: O=c1cc(N2CCN(c3cccc(C(F)(F)F)c3)CC2)[nH]c(=O)n1C1CCCCC1
target_or_system: Nuclear receptor subfamily 5 group A member 2 (Homo sapiens) (UniProt O00482)
assigned_class: T
//
smiles_str: CCOC(=O)N1CCN(c2cc(=O)n(C3CCCCC3)c(=O)[nH]2)CC1
target_or_system: Nuclear receptor subfamily 5 group A member 2 (Homo sapiens) (UniProt O00482)
assigned_class: T
//
smiles_str: O=c1cc(N2CCN(CCN3CCOCC3)CC2)[nH]c(=O)n1C1CCCCC1
target_or_system: Nuclear receptor subfamily 5 group A member 2 (Homo sapiens) (UniProt O00482)
assigned_class: T
//
smiles_str: O=c1cc(N2CCN(c3ccccc3C(F)(F)F)CC2)[nH]c(=O)n1C1CCCCC1
target_or_system: Nuclear receptor subfamily 5 group A member 2 (Homo sapiens) (UniProt O00482)
assigned_class: T
//
smiles_str: O=c1cc(N2CCN(c3ccnc4cc(Cl)ccc34)CC2)[nH]c(=O)n1C1CCCCC1
target_or_system: Nuclear receptor subfamily 5 group A member 2 (Homo sapiens) (UniProt O00482)
assigned_class: T
//
smiles_str: O=c1cc(N2CCN(Cc3ccc(Cl)cc3)CC2)[nH]c(=O)n1C1CCCCC1
target_or_system: Nuclear receptor subfamily 5 group A member 2 (Homo sapiens) (UniProt O00482)
assigned_class: T
//
smiles_str: O=c1cc(N2CCCC2)[nH]c(=O)n1C1CCCCC1
target_or_system: Nuclear receptor subfamily 5 group A member 2 (Homo sapiens) (UniProt O00482)
assigned_class: F
//
smiles_str: O=c1cc(N2CCN(c3cccc(Cl)c3)CC2)[nH]c(=O)[nH]1
target_or_system: Nuclear receptor subfamily 5 group A member 2 (Homo sapiens) (UniProt O00482)
assigned_class: F
//
smiles_str: O=c1cc(N2CCc3ccccc32)[nH]c(=O)n1C1CCCCC1
target_or_system: Nuclear receptor subfamily 5 group A member 2 (Homo sapiens) (UniProt O00482)
assigned_class: T
//
smiles_str: CCn1c(=O)cc(N2CCN(c3cccc(Cl)c3)CC2)[nH]c1=O
target_or_system: Nuclear receptor subfamily 5 group A member 2 (Homo sapiens) (UniProt O00482)
assigned_class: T
//
smiles_str: O=c1cc(N2CCN(c3cccc(C(F)(F)F)n3)CC2)[nH]c(=O)n1C1CCCCC1
target_or_system: Nuclear receptor subfamily 5 group A member 2 (Homo sapiens) (UniProt O00482)
assigned_class: F
//
smiles_str: Cn1c(=O)cc(N2CCN(c3ccc(F)cc3)CC2)[nH]c1=O
target_or_system: Nuclear receptor subfamily 5 group A member 2 (Homo sapiens) (UniProt O00482)
assigned_class: T
//
smiles_str: Cc1ccc(Cl)cc1N1CCN(c2cc(=O)n(C3CCCCC3)c(=O)[nH]2)CC1
target_or_system: Nuclear receptor subfamily 5 group A member 2 (Homo sapiens) (UniProt O00482)
assigned_class: T
//
smiles_str: O=c1cc(N2CCN(c3cc(C(F)(F)F)ccn3)CC2)[nH]c(=O)n1C1CCCCC1
target_or_system: Nuclear receptor subfamily 5 group A member 2 (Homo sapiens) (UniProt O00482)
assigned_class: T
//
smiles_str: O=c1cc(N2CCN(c3ncccc3Cl)CC2)[nH]c(=O)n1C1CCCCC1
target_or_system: Nuclear receptor subfamily 5 group A member 2 (Homo sapiens) (UniProt O00482)
assigned_class: T
